Tested on: Human MPZ
Sequence (P25189 30-153 limits assumed): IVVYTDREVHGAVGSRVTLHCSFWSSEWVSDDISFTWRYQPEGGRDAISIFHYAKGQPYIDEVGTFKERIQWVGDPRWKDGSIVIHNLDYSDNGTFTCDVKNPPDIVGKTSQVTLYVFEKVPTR
Experiment: Phage display library screening (Example 2, Python script analysis), binding to Human MPZ
Settings: combined unique sequence count, Python/R script analysis
Measured Endpoint: Count
Give the figure by itself; no unit, no explanation.

# count of solved cases: 3
Substance	Observed Measurement
HPLMVPS (Human MPZ-binding peptide)	41
CQKWFTFAC (Human MPZ-binding peptide)	39
FSPRDVS (Human MPZ-binding peptide)	39

Entry QIAHLEY (Human MPZ-binding peptide) — recorded Count = 50
